- EXPERIMENT_DESCRIPTION: Tacrolimus blood pharmacokinetics, oral vs intra-cecal ingestible device (Example 10)
- Assay type: in vivo, Yorkshire-Cross farm swine
- CONDITION_NOTES: female, Yorkshire-Cross, pig, in vivo, 0.02 mg/kg
VALUE_TYPE: concentration at 12 h (ng/mL)
# output: bare number, implied unit ng/mL

query: So what does the record say about concentration at 12 h for C=CC[C@@H]1/C=C(\C)C[C@H](C)C[C@H](OC)[C@H]2O[C@@](O)(C(=O)C(=O)N3CCCC[C@H]3C(=O)O[C@H](/C(C)=C/[C@@H]3CC[C@@H](O)[C@H](OC)C3)[C@H](C)[C@@H](O)CC1=O)[C@H](C)C[C@@H]2OC ?
result: 0.746

----------
- EXPERIMENT_DESCRIPTION: Tacrolimus blood pharmacokinetics, oral vs intra-cecal ingestible device (Example 10)
- Type: in vivo, Yorkshire-Cross farm swine
- CONDITION_NOTES: female, Yorkshire-Cross, pig, in vivo, 0.04 mg/kg
VALUE_TYPE: Tmax (h)
# output: bare number, implied unit h

query: Given the compound C=CC[C@@H]1/C=C(\C)C[C@H](C)C[C@H](OC)[C@H]2O[C@@](O)(C(=O)C(=O)N3CCCC[C@H]3C(=O)O[C@H](/C(C)=C/[C@@H]3CC[C@@H](O)[C@H](OC)C3)[C@H](C)[C@@H](O)CC1=O)[C@H](C)C[C@@H]2OC , what is its reported Tmax?
result: 1

----------
- EXPERIMENT_DESCRIPTION: Tacrolimus blood pharmacokinetics, oral vs intra-cecal ingestible device (Example 10)
- Format: in vivo, Yorkshire-Cross farm swine
- CONDITION_NOTES: female, Yorkshire-Cross, pig, in vivo, 0.09 mg/kg
- Method: The primary objective of this study was to compare the tissue, plasma, rectal sample, and GI content pharmacokinetics of tacrolimus through oral versus intra-cecal ingestible device delivery in normal Yorkshire-Cross farm swine. No further randomization procedure was employed. […] Group 3 animals were administered a single intra-cecal ingestible device containing tacrolimus at 1-mg/0.8 mL (0.02 mg/kg) (in the vehicle solution) on Day 1 by a veterinary surgeon. […] All samples were analyzed for tacrolimus. […]
VALUE_TYPE: concentration at 12 h

query: Sample C=CC[C@@H]1/C=C(\C)C[C@H](C)C[C@H](OC)[C@H]2O[C@@](O)(C(=O)C(=O)N3CCCC[C@H]3C(=O)O[C@H](/C(C)=C/[C@@H]3CC[C@@H](O)[C@H](OC)C3)[C@H](C)[C@@H](O)CC1=O)[C@H](C)C[C@@H]2OC [tacrolimus] — what was its concentration at 12 h?
result: 4.35 ng/mL

----------
- EXPERIMENT_DESCRIPTION: Tacrolimus blood pharmacokinetics, oral vs intra-cecal ingestible device (Example 10)
- Type: in vivo, Yorkshire-Cross farm swine
- CONDITION_NOTES: female, Yorkshire-Cross, pig, in vivo, 0.04 mg/kg
VALUE_TYPE: concentration at 12 h
Enter the number, and then the unit.

query: Any idea what its concentration at 12 h is? The molecule is C=CC[C@@H]1/C=C(\C)C[C@H](C)C[C@H](OC)[C@H]2O[C@@](O)(C(=O)C(=O)N3CCCC[C@H]3C(=O)O[C@H](/C(C)=C/[C@@H]3CC[C@@H](O)[C@H](OC)C3)[C@H](C)[C@@H](O)CC1=O)[C@H](C)C[C@@H]2OC [tacrolimus]
result: 1.96 ng/mL
